TEST PROTOCOL: self-splicing fitness, log relative to wild type (ln ratio); higher = more splicing; Tetrahymena group I intron in knt gene, E. coli kanamycin selection, DiMSum; sequences stand for … in CUCUCU…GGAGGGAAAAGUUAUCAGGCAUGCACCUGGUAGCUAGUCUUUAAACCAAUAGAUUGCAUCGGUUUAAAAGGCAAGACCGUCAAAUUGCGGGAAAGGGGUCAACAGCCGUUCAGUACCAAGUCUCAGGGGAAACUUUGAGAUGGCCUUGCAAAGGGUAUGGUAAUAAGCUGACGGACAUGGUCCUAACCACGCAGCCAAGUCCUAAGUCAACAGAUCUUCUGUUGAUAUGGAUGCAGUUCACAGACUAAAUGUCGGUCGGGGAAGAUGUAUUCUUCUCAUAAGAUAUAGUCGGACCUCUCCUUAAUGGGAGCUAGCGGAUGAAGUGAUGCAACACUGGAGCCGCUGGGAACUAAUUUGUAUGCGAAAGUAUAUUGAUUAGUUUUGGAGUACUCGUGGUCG;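 also: selection with 25 µg/mL kanamycin versus none on LB agar overnight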
ASSAY CONDITIONS: 37 °C
VALUE TYPE: self-splicing fitness (ln)
Give bare numbers.

Illustrative cases are given below, each with its answer.
AACAAGCAAUAUUACGUGGG; -2.95
ACUGAGCAAUAUUACGCUAU; -2.42
AGUCAGCAAUAUUACGCAGU; -0.11

I would be grateful if you could provide self-splicing fitness (ln) for each of the following entries.
1. CAUUAGCAAUAUUACGCGCA
2. GCGUAGCAAUAUUACGAGUC
3. GACCAGCAAUAUUACGGAAG
4. AGCCAGCAAUAUUACGACGA
5. GGGCAGCAAUAUUACGUGCC
6. GUUUAGCAAUAUUACGUGCU
7. GUCAAGCAAUAUUACGUUAG

Found:
1: -1.52; 2: -2.17; 3: -0.75; 4: -1.76; 5: -0.519; 6: -1.31; 7: -3.3

// for each sequence below, give its self-splicing fitness (ln)
1. AUCGAGCAAUAUUACGGGUG
2. CUAGAGCAAUAUUACGCCUG
3. AGUGAGCAAUAUUACGUCCC
4. UGCAAGCAAUAUUACGGCAG
5. CAUAAGCAAUAUUACGAACA
6. CGGUAGCAAUAUUACGCGCG

Found:
[-1.89, 0.825, 0.283, -0.0588, -2.06, -1.87]

* * *

TEST PROTOCOL: self-splicing fitness, log relative to wild type (ln ratio); higher = more splicing; Tetrahymena group I intron in knt gene, E. coli kanamycin selection, DiMSum; sequences stand for … in CUCUCU…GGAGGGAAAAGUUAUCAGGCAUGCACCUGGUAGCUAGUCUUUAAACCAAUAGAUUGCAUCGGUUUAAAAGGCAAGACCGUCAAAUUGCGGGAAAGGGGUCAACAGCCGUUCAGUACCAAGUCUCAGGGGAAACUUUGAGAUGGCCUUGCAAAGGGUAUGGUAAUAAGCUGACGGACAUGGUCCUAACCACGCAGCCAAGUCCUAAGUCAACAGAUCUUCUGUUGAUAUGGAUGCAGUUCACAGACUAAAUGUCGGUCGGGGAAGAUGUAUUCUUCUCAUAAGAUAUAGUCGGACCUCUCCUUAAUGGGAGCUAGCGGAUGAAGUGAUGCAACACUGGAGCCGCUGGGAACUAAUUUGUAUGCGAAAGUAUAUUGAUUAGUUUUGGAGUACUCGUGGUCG
ASSAY CONDITIONS: 37 °C
VALUE TYPE: self-splicing fitness (ln)

GCGUAGCAAUAUUACGGUUU; -0.436
GCACAGCAAUAUUACGGACA; -0.584
UCGCAGCAAUAUUACGGUGU; -2.63
CCGGAGCAAUAUUACGAAAA; -2.99
AGACAGCAAUAUUACGACUG; -0.387

For every item below, please supply its self-splicing fitness (ln).
1. AACGAGCAAUAUUACGUUGG
2. AGUAAGCAAUAUUACGGCAU
3. AUCUAGCAAUAUUACGGCUA
4. UACGAGCAAUAUUACGUAGG
5. CCUUAGCAAUAUUACGACGU
6. AGAAAGCAAUAUUACGGGUG

Found:
1. -2.86
2. -0.411
3. -2.4
4. -2.57
5. -1.9
6. -1.36

Recorded values, source the supplement of paper PMC7877785.
